- METHOD: compound binding in COS7 lysate, probe aLAP1, primary screen, cell lysate, small-molecule microarray (AID 1124);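 note: lysate comes from COS7 cells expressing LAP1 and is applied at 0.3 µg/mL; score merges spot fluorescence near 667 nm with signal-to-noise over triplicate slides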
- MEASUREMENT CONDITIONS: probe aLAP1, fluorescence, higher = more signal

COMPOUND	composite z-score
COCCOC(=O)N1C(=O)[C@@]2(c3cc(C#Cc4ccc(OC)cc4)ccc31)[C@H](c1ccc(O)cc1)N1[C@H](c3ccccc3)[C@H](c3ccccc3)OC(=O)[C@H]1[C@@H]2C(=O)NC[C@H](O)c1ccccc1	0.693
C=CCOC(=O)[C@@H]1[C@H]2C(=O)O[C@H](c3ccccc3)[C@H](c3ccccc3)N2[C@H](c2ccc(OCCOC(=O)[C@@H]3C[C@@H]4C(=O)N[C@@H](CCCCN(C)C)C(=O)N4[C@@H]3c3ccc(O)cc3)cc2)[C@@]12C(=O)Nc1ccc(I)cc12	-0.157
CN1C(=O)[C@]2(Cc3ccccc3)N=C(c3ccc(OCCCO)cc3)O[C@@H]2c2ccccc21	0.824
CC1CC/C=C\[C@H]2OC34C=CCN(c5ccc(Cl)cc5)C(=O)[C@H]3N(CCO)C(=O)[C@]4(C)C2C(=O)O1 (stereo partly specified)	0.627
CCOC(=O)C[C@H]1[C@H](OC(=O)c2cc3ccccc3oc2=O)[C@@H](NC(=O)Cc2ccc(OC)cc2)c2cc(OCCCO)ccc2N1C(=O)c1ccccc1	-0.0727
COc1ccc([Si](C)(C)[C@H]2[C@H](CCn3cc([C@H](O)c4ccccc4)nn3)O[C@@]3(C(=O)N(Cc4cccc(N5CCOC5=O)c4)c4ccccc43)[C@@H]2C)cc1	-0.49
C=CCNC(=O)[C@H]1[C@@H]2C(=O)O[C@@H](c3ccccc3)[C@@H](c3ccccc3)N2[C@@H](c2ccc(OCCO)cc2)[C@]12C(=O)Nc1ccc(C#CC3=CCCCC3)cc12	0.272
COc1ccc(CCN2C(=O)[C@@]3(c4ccc([N+](=O)[O-])cc4)CC(=O)N(C4CCCCC4)[C@@H]3c3ccc(CO)cc32)cc1	0.347
O=C1O[C@@H](c2ccccc2)[C@@H](c2ccccc2)N2[C@@H](c3ccc(OCCO)cc3)[C@]3(C(=O)Nc4ccccc43)[C@@H](C(=O)NC[C@H](O)c3ccccc3)[C@H]12	0.759
CC(C)N1C(=O)c2ccccc2[C@](C)(C(=O)NCc2ccccc2)[C@@H]1c1ccc(CO)cc1	0.967
CCCCC(O)C1C=CC2C(=O)N(c3ccccc3)C(=O)C2N1Nc1ccccc1F (stereo unspecified)	0.439
C=CCOC(=O)[C@H]1[C@@H]2C(=O)O[C@@H](c3ccccc3)[C@@H](c3ccccc3)N2[C@@H](c2ccc(OCCOC(=O)[C@H]3C[C@H]4C(=O)N5CCC[C@H]5C(=O)N4[C@H]3c3ccc(O)cc3)cc2)[C@]12C(=O)Nc1ccc(I)cc12	1.13
COc1ccc(C(=O)Nc2ccc(CN3C(=O)[C@@]4(O[C@@H](CCO)[C@H]([Si](C)(C)c5ccc(OC)cc5)[C@H]4C)c4ccccc43)cc2)cc1	0.292
CN(C)CCCNC(=O)[C@@]1(C)c2ccccc2C(=O)N(Cc2cc(F)cc(C(F)(F)F)c2)[C@H]1c1ccc(CO)cc1	0.457
CC(C)C[C@@H]1NC(=O)[C@@H]2C[C@H](C(=O)NCCCCCN)[C@H](c3cccc(OCCO)c3)N2C1=O	1.16
O=C1NCC(=O)N2[C@@H]1C[C@@H](C(=O)O)[C@H]2c1cccc(OCCO)c1	1.03
COC(=O)[C@@]1(Cc2ccc(F)cc2)[C@H]2c3cc(C(=O)N(C)C)n(Cc4ccc(S(C)(=O)=O)cc4)c3C[C@H]2CN1C(=O)c1ccccc1	1.04
O=C1O[C@H](c2ccccc2)[C@H](c2ccccc2)N2[C@H]1[C@@H](C(=O)O)[C@]1(C(=O)Nc3ccc(C#CC4=CCCCC4)cc31)[C@H]2c1ccccc1OCCO	0.834
CN1C(=O)C2C=CC(C(O)Cc3ccccc3)N(Nc3ccccc3)C2C1=O (stereo unspecified)	-0.333
C=CC[C@]1(C(=O)NCCCOC)N=C(c2ccc(OCCCO)cc2)O[C@H]1c1ccccc1N=[N+]=[N-]	0.397
O=C1NC(=O)C2C1C=CC(C(O)C(c1ccccc1)c1ccccc1)N2Nc1ccc(Cl)cc1Cl (stereo unspecified)	0.0766

Where these numbers come from: PubChem BioAssay
